assay-target: human recombinant serotonin (5-Hydroxytryptamine) 5-HT5A receptor (Homo sapiens, UniProt P47898)
Construct: expressed in transfected cells; host or cells: Chinese hamster ovary (CHO-K1) cells
Sequence (P47898 whole entry): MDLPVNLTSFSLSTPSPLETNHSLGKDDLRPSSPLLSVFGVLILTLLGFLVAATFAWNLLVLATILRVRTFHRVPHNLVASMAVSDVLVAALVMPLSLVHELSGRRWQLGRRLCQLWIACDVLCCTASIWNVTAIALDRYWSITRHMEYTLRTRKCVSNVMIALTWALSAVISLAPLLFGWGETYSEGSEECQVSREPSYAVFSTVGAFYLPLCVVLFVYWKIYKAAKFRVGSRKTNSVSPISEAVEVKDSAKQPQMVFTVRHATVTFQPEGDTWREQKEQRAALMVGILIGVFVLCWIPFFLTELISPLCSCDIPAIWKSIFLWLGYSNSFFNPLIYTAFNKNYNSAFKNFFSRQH
protocol-summary: Serotonin 5-HT5A radioligand binding assay ([3H]LSD)
measurement-setup: compound at 0.1 μM; 1.7 nM [3H]LSD; CHO-K1 cells; read-out: Percent Inhibition of ligand binding, Serotonin (0.1 μM) 5-HT5A
Procedure: Compounds of the invention were incubated with 1.7 nM [^3H]Lysergic acid diethylamide (LSD) for 60 min at 37° C. […] Receptor proteins were filtered and washed, the filters were then counted to determine [^3H]LSD specifically bound. Compounds were screened at 1 μM or lower, using 1% DMSO as vehicle. Compounds of the invention were tested in this biochemical assay and percent inhibition of specific binding was determined. […]
Kind request: treat 20% as inclusive, so inhibition at 0.1 µM at 20% or higher is 1, anything lower is 0.

# input Record `CC[C@](O)(Cn1c2c(c3cc(C)ccc31)CN(C)CC2)c1ccncc1` ; criterion: inhibition at 0.1 µM no lower than 20%. Met?
# output 0

# input And the next one, `CC[C@@](O)(Cn1c2c(c3cc(C)ccc31)CN(C)CC2)c1ccc(F)cc1` ?
# output 1

# input And the next one, `CC[C@@](O)(Cn1c2c(c3cc(C)ccc31)CN(C)CC2)c1ccncc1` ?
# output 0

# input And the next one, `CC[C@](O)(Cn1c2c(c3cc(C)ccc31)CN(C)CC2)c1ccc(F)cc1` ?
# output 1

# input And the next one, `CCCC[C@](O)(Cn1c2c(c3cc(Cl)ccc31)CN(C)CC2)c1ccc(F)cc1` ?
# output 0

# input And the next one, `Cc1ccc2c(c1)c1c(n2CCc2ccc(C)nc2)CCN(CC(F)(F)F)C1` ?
# output 0

# input And the next one, `CCCC[C@@](O)(Cn1c2c(c3cc(Cl)ccc31)CN(C)CC2)c1ccc(F)cc1` ?
# output 0

---

Would you kindly list inhibition at 0.1 µM for each of these compounds?
assay-target: human recombinant serotonin (5-Hydroxytryptamine) 5-HT6 receptor (Homo sapiens)
Construct: expressed in transfected cells; host or cells: human HeLa cells
Sequence (P50406 whole entry): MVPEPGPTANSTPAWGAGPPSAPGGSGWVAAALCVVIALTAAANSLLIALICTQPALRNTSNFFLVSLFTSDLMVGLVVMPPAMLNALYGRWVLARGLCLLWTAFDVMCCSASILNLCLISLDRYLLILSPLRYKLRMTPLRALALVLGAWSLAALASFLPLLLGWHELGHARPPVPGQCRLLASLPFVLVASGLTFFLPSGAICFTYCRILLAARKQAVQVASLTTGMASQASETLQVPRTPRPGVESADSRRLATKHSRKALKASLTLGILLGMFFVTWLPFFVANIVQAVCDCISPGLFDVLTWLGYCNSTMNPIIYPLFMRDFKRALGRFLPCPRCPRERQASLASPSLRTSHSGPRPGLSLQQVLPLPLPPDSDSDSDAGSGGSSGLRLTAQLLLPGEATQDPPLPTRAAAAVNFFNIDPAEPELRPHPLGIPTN
protocol-summary: Serotonin 5-HT6 radioligand binding assay ([3H]LSD)
measurement-setup: compound at 0.1 μM, HeLa cells, read-out: Percent Inhibition of ligand binding, Serotonin (0.1 μM) 5-HT6
Number in %, nothing else.

# input Can you share its inhibition at 0.1 µM? I mean this compound: `CCCC[C@](O)(Cn1c2c(c3cc(Cl)ccc31)CN(C)CC2)c1ccc(F)cc1`
# output 68

# input And the next one, `Cc1ccc2c(c1)c1c(n2CC2(c3ccncc3)CC2)CCN(C)C1` ?
# output 30

# input And the next one, `CC[C@](O)(Cn1c2c(c3cc(C)ccc31)CN(C)CC2)c1ccncc1` ?
# output 25

---

Would you kindly list inhibition at 1 µM for each of these compounds?
assay-target: human recombinant serotonin (5-Hydroxytryptamine) 5-HT2A receptor (Homo sapiens, UniProt P28223)
Construct: expressed in transfected cells; host or cells: Chinese hamster ovary (CHO-K1) cells
Sequence (P28223 whole entry): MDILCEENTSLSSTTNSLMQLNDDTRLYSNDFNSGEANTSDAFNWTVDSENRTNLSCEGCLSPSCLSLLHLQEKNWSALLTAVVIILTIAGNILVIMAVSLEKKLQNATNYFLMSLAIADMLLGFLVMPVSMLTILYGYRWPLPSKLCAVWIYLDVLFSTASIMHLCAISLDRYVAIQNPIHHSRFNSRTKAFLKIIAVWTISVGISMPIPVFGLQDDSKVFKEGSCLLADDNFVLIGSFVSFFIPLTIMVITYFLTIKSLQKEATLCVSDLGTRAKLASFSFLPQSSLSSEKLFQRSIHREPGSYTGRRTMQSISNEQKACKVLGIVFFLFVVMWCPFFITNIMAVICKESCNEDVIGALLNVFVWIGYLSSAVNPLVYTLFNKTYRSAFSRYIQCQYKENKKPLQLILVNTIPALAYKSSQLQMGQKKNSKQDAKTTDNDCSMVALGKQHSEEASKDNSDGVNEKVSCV
protocol-summary: Serotonin 5-HT2A radioligand binding assay ([3H]Ketanserin)
measurement-setup: compound at 1 μM; 0.5 nM [3H]Ketanserin; CHO-K1 cells; read-out: Percent Inhibition of ligand binding, Serotonin (1 μM) 5-HT2A
Number in %, nothing else.

# input Can you share its inhibition at 1 µM? I mean this compound: Cc1ccc2c(c1)c1c(n2CC(=O)c2ccccc2)CCN(C)C1 [Compound 1-35]
# output 90

# input And the next one, CN1CCc2c(c3c(Cl)c(Cl)ccc3n2CC(C)(O)c2ccncc2)C1 (centres unmarked) [Compound 1-18] ?
# output 71

# input And the next one, CN1CCc2c(c3cccc(Cl)c3n2CC(C)(O)c2ccncc2)C1 (centres unmarked) [Compound 1-10] ?
# output 91

# input And the next one, COc1ccc(C(C)(O)Cn2c3c(c4cc(Cl)ccc42)CN(C)CC3)cc1F (centres unmarked) [Compound 1-59] ?
# output 96

# input And the next one, CN1CCc2c(c3cc(Cl)ccc3n2CC(C)(O)c2cccnc2)C1 (centres unmarked) [Compound 1-54] ?
# output 77
